Where do these numbers come from? They come from ChEMBL document CHEMBL1961873.

inhibition values, listed per item
tested on: Mast/stem cell growth factor receptor Kit (Homo sapiens), P10721 [T670I]; details: at 0.1 µM
Sequence (P10721 whole entry T670I): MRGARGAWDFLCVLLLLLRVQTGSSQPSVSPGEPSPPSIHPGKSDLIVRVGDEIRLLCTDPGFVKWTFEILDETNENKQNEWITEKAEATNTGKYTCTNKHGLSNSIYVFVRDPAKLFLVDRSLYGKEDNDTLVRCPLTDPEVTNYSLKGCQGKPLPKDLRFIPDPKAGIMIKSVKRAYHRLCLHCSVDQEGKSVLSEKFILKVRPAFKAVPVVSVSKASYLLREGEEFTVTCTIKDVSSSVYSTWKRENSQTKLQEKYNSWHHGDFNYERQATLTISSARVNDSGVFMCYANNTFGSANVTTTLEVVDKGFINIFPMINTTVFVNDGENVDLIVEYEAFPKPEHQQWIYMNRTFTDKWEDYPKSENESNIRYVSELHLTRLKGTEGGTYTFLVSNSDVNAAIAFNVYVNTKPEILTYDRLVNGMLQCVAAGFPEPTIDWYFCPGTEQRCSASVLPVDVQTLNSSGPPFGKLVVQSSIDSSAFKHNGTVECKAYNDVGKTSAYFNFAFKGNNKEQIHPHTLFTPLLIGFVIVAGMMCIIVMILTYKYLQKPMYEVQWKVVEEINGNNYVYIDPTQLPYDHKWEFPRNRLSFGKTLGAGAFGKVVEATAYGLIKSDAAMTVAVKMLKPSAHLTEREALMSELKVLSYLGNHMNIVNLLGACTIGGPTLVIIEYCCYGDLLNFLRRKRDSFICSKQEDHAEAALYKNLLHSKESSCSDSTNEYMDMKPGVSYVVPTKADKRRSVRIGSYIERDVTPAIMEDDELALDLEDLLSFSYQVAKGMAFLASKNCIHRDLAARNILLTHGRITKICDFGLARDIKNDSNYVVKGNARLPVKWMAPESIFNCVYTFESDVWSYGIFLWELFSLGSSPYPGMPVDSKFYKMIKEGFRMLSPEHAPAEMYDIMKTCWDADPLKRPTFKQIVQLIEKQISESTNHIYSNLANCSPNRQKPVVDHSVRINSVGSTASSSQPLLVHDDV
assay readout: inhibition (%)

1) Fc1ccc(-c2nn3ncccc3c2-c2ccnc(Nc3ccc4c(c3)OCCO4)n2)cc1	5.56
2) CCn1c(-c2nonc2N)nc2c(C#CC(C)(C)O)nc(OC[C@H](N)c3ccccc3)cc21	0.36
3) [O-][S+]1CCN(Cc2ccc(-c3ccc4ncnc(Nc5ccc(OCc6cccc(F)c6)c(Cl)c5)c4c3)o2)CC1	2.75
4) Fc1ccc(-c2cc(-c3c[nH]nc3-c3ccccn3)ccn2)cc1	4.29
5) COc1cc2ncn(-c3cc(OCc4ccccc4C(F)(F)F)c(C(=O)N(C)C)s3)c2cc1OC	-0.65
6) O=C(O[C@H]1CN[C@H](C#Cc2cc3ncnc(Nc4ccc(Cc5ccccc5)cc4)c3s2)C1)N1CCOCC1	1.94
7) COc1ccc(CNC(=O)c2ccc(-c3cc(-c4nnc(C)o4)ccc3C)cc2)cc1	2.12
8) NC(=O)c1sc(-n2cnc3ccc(C(F)(F)F)cc32)cc1OCc1ccccc1Br	2.58
9) COc1cccc(-c2c[nH]c3c(N/N=C/c4ccncc4)ncnc23)c1	7.21
10) Clc1ccc(-c2nn3ncccc3c2-c2ccnc(Nc3ccccc3)n2)cc1	-3.61
11) COc1ccc(-c2cc(-c3c[nH]nc3-c3ccccn3)ccn2)cc1	4.24
12) Cc1cccc2c1NC(=O)/C2=N\Nc1ccc(S(N)(=O)=O)cc1	6.87

---

target: Tyrosine-protein kinase HCK (Homo sapiens); settings: at 1 µM;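 also: values are averaged percent inhibition of HCK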
assay readout: inhibition (%)

1) O=S(=O)(CCNCc1ccc(-c2ccc3ncnc(Nc4ccc(OCc5cccc(F)c5)c(Cl)c4)c3c2)o1)c1ccccc1	8.65
2) Fc1ccc(-c2cc(-c3c[nH]nc3-c3ccccn3)ccn2)cc1	6.04
3) CS(=O)(=O)CCNCc1ccc(-c2ccc3ncnc(Nc4ccc(OCc5ccccc5)c(C(F)(F)F)c4)c3c2)o1	5.75
4) NC(=O)c1sc(-n2cnc3ccc(C(F)(F)F)cc32)cc1OCc1ccccc1Br	5.95
5) CN(C)CCOc1ccc(-c2nc(-c3ccncc3)c(-c3ccc4c(c3)CC/C4=N\O)[nH]2)cc1	8.01
6) Fc1ccc(-c2nn3ccccc3c2-c2ccncc2)cc1	5.95
7) COc1cc2ncn(-c3cc(OCc4ccccc4C(F)(F)F)c(C(=O)N(C)C)s3)c2cc1OC	10.1
8) CC1=C(C(=O)Nc2cc(Cl)c3[nH]ncc3c2)C(c2ccc(C(F)(F)F)cc2)CC(=O)N1 (centres undefined)	6.23
9) Nc1ncc(-c2cccc(S(N)(=O)=O)c2)c2scc(-c3ccc(F)c(Cl)c3)c12	76.1

---

inhibition values, listed per item
target: BDNF/NT-3 growth factors receptor (Homo sapiens); settings: at 1 µM;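 also: values are the mean percent inhibition of TRKB kinase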
assay readout: inhibition (%)

1) CN1CCC(n2cnc(-c3ccc(F)cc3)c2-c2ccnc(N)n2)CC1	6.74
2) CCn1c(-c2nonc2N)nc2ccccc21	-0.82
3) Nc1nc(-c2ccc(F)cc2)c(-c2ccc3ncccc3n2)s1	3.45
4) CS(=O)(=O)CCNCc1coc(-c2ccc3ncnc(Nc4ccc(OCc5ccccc5)cc4)c3c2)c1	4.13
5) Cc1cccc(Nc2ncc(-c3ccccc3)o2)c1	11.7
6) CCCN1CCC(c2ccc(Nc3nc(Nc4cc(F)ccc4C(N)=O)c4cc[nH]c4n3)c(OC)c2)CC1	9.14
7) COc1ccc(-c2cc3c(N)ncnc3o2)cc1	1.81
8) COc1cc2c(cc1Nc1nc(Nc3ccsc3C(N)=O)c3cc[nH]c3n1)N(C(=O)CN(C)C)CCC2(C)C	11.4
9) O=S(=O)(CCNCc1ccc(-c2ccc3ncnc(Nc4ccc(OCc5cccc(F)c5)c(Cl)c4)c3c2)o1)c1ccccc1	5.72
10) Fc1ccc(-c2nn3ncccc3c2-c2ccnc(Nc3ccc4c(c3)OCCO4)n2)cc1	12.8
11) COc1cc(/C=N/Nc2ncnc3[nH]ncc23)ccc1O	10.7
12) CC(C)(CO)CNC(=O)c1ccc2c(c1)/C(=N/Nc1ccc(S(N)(=O)=O)cc1)C(=O)N2	31.2
13) Nc1ncc(-c2cccc(S(N)(=O)=O)c2)c2scc(-c3ccc(F)c(Cl)c3)c12	3.28
14) Fc1ccc(-c2nn3ccccc3c2-c2ccncc2)cc1	0.3
15) CNC(=O)c1cccc(C#Cc2cncnc2Nc2ccc(OCc3cccc(F)c3)c(Cl)c2)c1	1.08
16) COc1cccc(-n2ncc3c(N/N=C/c4ccc(F)cc4)ncnc32)c1	4.5
17) NS(=O)(=O)c1ccc(N/N=C2\C(=O)Nc3ccc4ncccc4c32)cc1	72
18) COC(=O)Nc1nc2ccc(S(=O)(=O)c3ccc(NC(=O)Nc4cc(C(F)(F)F)ccc4F)cc3)cc2[nH]1	3.21
19) Cc1cccc2c1NC(=O)/C2=N\Nc1ccc(S(N)(=O)=O)cc1	1.7
20) CNC(=O)c1cncc(/C=C/c2ccccc2Cl)c1	2.71
21) COC(=O)c1sc(-n2cnc3cc(OC)c(OC)cc32)cc1OCc1ccccc1C(F)(F)F	14.9
22) CC1=C(C(=O)Nc2cc(Cl)c3[nH]ncc3c2)C(c2ccc(C(F)(F)F)cc2)CC(=O)N1 (configuration not stated)	3.55
